- Procedure Text: PK analysis of 8M2D in transgenic mice (APPSWE), plasma
- Condition Description: mouse, in vivo, sc, 50 mg/kg, Day 13, 50 mg/kg, read-out: Vz/F
Square brackets hold non-standard residues; d marks the D form. Peptide text beside a SMILES is read from it.
Attribute Measured: Vd/F (L/kg)
I only need the number, in L/kg, no unit after it.

input: I have this molecule here, CC(=O)N[C@H](CC(=O)O)C(=O)N[C@@H](CCC(=O)O)C(=O)N[C@@H](CCC(=O)O)C(=O)N[C@@H](CCC(=O)O)C(=O)N[C@@H](CC(=O)O)C(=O)N[C@@H](CCC(=O)O)C(=O)N[C@@H](CCC(=O)O)C(=O)N[C@@H](CC(C)C)C(N)=O [8M2D, Ac-dEEEDEEL-NH2] (Ac-[dD]EEEDEEL-NH2) , and I need its recorded Vd/F.
output: 148

###

- Procedure Text: PK analysis of 8M2D in transgenic mice (APPSWE), plasma
- Condition Description: mouse, in vivo, sc, 50 mg/kg, Day 13, 50 mg/kg, read-out: AUClast
Square brackets hold non-standard residues; d marks the D form. Peptide text beside a SMILES is read from it.
Attribute Measured: AUC(0-t) (ng·h/mL)
Numeric answer only, unit ng·h/mL assumed.

input: What measured AUC(0-t) goes with CC(=O)N[C@H](CC(=O)O)C(=O)N[C@@H](CCC(=O)O)C(=O)N[C@@H](CCC(=O)O)C(=O)N[C@@H](CCC(=O)O)C(=O)N[C@@H](CC(=O)O)C(=O)N[C@@H](CCC(=O)O)C(=O)N[C@@H](CCC(=O)O)C(=O)N[C@@H](CC(C)C)C(N)=O [8M2D, Ac-dEEEDEEL-NH2] (Ac-[dD]EEEDEEL-NH2) ?
output: 49700

###

- Procedure Text: PK analysis of 8M2D in transgenic mice (APPSWE), plasma
- Condition Description: mouse, in vivo, sc, 250 mg/kg, Day 13, 250 mg/kg, read-out: Tmax
Square brackets hold non-standard residues; d marks the D form. Peptide text beside a SMILES is read from it.
Attribute Measured: Tmax (min)
Please state the figure in min; there is no need to write the unit.

input: GET /values?readout=Tmax&item= CC(=O)N[C@H](CC(=O)O)C(=O)N[C@@H](CCC(=O)O)C(=O)N[C@@H](CCC(=O)O)C(=O)N[C@@H](CCC(=O)O)C(=O)N[C@@H](CC(=O)O)C(=O)N[C@@H](CCC(=O)O)C(=O)N[C@@H](CCC(=O)O)C(=O)N[C@@H](CC(C)C)C(N)=O [8M2D, Ac-dEEEDEEL-NH2] (Ac-[dD]EEEDEEL-NH2)
output: 10.2

###

- Procedure Text: PK analysis of 8M2D in transgenic mice (APPSWE), plasma
- Condition Description: mouse, in vivo, sc, 50 mg/kg, Day 1, 50 mg/kg, read-out: Cmax
- Source text: Pharmacokinetics (PK) of 8M2D was further analyzed with various doses at days 1 and 13 in transgenic mice (APPSWE (B6; SJL 2576 Kha; Taconic)). See Hsiao et al., Correlative memory deficits, Aβ elevation, and amyloid plaques in transgenic mice. Science 274:99-102 (1996); and Haugabook et al., Reduction of Abeta accumulation in the Tg2576 animal model of Alzheimer's disease after oral administration of the phosphatidyl-inositol kinase inhibitor wortmannin. Faseb J 15:16-18 (2001).
Square brackets hold non-standard residues; d marks the D form. Peptide text beside a SMILES is read from it.
Attribute Measured: Cmax

input: Which value of Cmax has been reported for CC(=O)N[C@H](CC(=O)O)C(=O)N[C@@H](CCC(=O)O)C(=O)N[C@@H](CCC(=O)O)C(=O)N[C@@H](CCC(=O)O)C(=O)N[C@@H](CC(=O)O)C(=O)N[C@@H](CCC(=O)O)C(=O)N[C@@H](CCC(=O)O)C(=O)N[C@@H](CC(C)C)C(N)=O [8M2D, Ac-dEEEDEEL-NH2] (Ac-[dD]EEEDEEL-NH2) in the records?
output: 111 µg/mL

Where these numbers come from: patent US20220064214A1
